target: Protein cereblon/Tyrosine-protein kinase ABL1/Breakpoint cluster region protein (Homo sapiens, UniProt P00519+P11274+Q96SW2); assay: PROTAC activity at CRBN/Bcr-Abl in human K562 cells assessed as degrading activity by Western blotting analysis; assay type: cell-based
Sequence (P00519 whole entry): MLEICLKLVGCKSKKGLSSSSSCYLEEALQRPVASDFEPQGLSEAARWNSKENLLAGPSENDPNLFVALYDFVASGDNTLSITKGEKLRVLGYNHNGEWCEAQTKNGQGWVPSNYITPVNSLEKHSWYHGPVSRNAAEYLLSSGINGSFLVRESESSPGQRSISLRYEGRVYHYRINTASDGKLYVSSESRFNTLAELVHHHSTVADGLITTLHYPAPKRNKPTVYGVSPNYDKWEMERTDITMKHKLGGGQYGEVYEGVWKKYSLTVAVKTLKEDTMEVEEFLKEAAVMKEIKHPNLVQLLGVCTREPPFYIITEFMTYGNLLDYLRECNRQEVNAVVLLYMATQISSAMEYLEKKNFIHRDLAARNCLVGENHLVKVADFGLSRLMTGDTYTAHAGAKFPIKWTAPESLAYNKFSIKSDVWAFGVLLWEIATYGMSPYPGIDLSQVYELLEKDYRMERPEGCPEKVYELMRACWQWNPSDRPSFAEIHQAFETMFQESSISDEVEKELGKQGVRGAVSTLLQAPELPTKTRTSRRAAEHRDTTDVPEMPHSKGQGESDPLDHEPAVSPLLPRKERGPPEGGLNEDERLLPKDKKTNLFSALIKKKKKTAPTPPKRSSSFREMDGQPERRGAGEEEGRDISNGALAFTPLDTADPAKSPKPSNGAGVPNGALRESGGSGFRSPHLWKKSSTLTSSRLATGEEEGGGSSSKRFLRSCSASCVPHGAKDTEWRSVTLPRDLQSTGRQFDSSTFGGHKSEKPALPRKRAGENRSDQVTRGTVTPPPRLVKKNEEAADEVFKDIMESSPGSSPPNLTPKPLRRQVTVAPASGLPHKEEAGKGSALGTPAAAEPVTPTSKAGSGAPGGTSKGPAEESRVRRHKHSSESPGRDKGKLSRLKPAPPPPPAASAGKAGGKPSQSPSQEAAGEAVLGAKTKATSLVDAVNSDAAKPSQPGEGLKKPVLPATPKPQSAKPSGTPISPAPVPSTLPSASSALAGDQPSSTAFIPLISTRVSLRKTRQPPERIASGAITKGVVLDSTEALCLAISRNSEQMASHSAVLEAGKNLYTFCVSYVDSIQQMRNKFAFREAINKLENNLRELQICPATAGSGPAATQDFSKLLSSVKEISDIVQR
Sequence (P11274 whole entry): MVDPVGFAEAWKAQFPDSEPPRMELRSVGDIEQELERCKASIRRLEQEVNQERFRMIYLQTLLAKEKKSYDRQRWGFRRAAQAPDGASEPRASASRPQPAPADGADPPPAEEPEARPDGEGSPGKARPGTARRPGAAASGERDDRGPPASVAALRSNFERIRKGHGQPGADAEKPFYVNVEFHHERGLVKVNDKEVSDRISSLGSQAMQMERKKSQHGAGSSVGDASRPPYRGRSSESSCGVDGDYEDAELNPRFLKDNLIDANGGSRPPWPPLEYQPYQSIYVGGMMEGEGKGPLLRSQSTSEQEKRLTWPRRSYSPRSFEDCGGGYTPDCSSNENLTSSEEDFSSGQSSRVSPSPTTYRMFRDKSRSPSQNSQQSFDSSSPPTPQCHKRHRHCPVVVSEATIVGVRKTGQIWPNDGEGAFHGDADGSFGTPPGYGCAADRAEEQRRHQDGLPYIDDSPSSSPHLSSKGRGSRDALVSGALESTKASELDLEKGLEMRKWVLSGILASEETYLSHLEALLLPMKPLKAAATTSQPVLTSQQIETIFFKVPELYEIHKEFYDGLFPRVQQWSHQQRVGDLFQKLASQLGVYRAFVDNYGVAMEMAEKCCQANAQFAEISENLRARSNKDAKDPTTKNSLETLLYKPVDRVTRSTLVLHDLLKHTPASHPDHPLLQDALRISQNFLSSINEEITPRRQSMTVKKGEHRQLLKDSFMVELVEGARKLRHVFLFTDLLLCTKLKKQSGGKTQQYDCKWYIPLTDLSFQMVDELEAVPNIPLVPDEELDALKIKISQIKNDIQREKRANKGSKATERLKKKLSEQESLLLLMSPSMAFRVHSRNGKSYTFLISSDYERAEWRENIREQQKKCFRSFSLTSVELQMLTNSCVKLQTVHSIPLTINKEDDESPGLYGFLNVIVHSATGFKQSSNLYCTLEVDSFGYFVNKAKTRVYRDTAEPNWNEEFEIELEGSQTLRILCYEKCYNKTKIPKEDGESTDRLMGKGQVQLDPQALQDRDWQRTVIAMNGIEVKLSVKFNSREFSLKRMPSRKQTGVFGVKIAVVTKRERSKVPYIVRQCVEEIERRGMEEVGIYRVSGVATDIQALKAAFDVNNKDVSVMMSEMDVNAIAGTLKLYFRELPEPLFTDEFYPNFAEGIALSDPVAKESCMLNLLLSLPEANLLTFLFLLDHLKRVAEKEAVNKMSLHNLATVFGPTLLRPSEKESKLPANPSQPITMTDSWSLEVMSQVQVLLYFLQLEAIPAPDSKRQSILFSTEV
Sequence (Q96SW2 whole entry): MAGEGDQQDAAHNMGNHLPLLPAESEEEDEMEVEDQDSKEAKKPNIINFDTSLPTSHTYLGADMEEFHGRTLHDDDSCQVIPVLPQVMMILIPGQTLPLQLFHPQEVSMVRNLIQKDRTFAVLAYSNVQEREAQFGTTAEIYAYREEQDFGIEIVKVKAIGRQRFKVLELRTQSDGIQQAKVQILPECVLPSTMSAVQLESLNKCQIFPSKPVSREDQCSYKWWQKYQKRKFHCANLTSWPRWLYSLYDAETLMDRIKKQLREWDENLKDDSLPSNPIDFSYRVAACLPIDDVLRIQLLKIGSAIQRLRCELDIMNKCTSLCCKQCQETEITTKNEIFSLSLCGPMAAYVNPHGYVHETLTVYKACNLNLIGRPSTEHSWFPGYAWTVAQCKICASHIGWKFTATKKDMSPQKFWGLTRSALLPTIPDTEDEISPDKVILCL
QUANTITY_NAME: DC50 (nM)

[[record]]
compound = "Cc1nc(Nc2ncc(C(=O)Nc3c(C)cccc3Cl)s2)cc(N2CCN(C(=O)COc3cccc4c3C(=O)N(C3CCC(=O)NC3=O)C4=O)CC2)n1 (configuration not stated)"
quantity_name = "DC50"
data_value = 11.1

[[record]]
compound = "Cc1nc(Nc2ncc(C(=O)Nc3c(C)cccc3Cl)s2)cc(N2CCN(C(=O)CNc3cccc4c3C(=O)N(C3CCC(=O)NC3=O)C4=O)CC2)n1 (configuration not stated)"
quantity_name = "DC50"
data_value = 10

[[record]]
compound = "Cc1nc(Nc2ncc(C(=O)Nc3c(C)cccc3Cl)s2)cc(N2CCN(C(=O)CSc3cccc4c3CN(C3CCC(=O)NC3=O)C4=O)CC2)n1 (configuration not stated)"
quantity_name = "DC50"
data_value = 8.9


A = Cc1nc(Nc2ncc(C(=O)Nc3c(C)cccc3Cl)s2)cc(N2CCN(C(=O)CCCC(=O)Nc3cccc4c3CN(C3CCC(=O)NC3=O)C4=O)CC2)n1 (configuration not stated)
B = Cc1nc(Nc2ncc(C(=O)Nc3c(C)cccc3Cl)s2)cc(N2CCN(C(=O)CCCNc3cccc4c3C(=O)N(C3CCC(=O)NC3=O)C4=O)CC2)n1 (configuration not stated)
C = Cc1nc(Nc2ncc(C(=O)Nc3c(C)cccc3Cl)s2)cc(N2CCN(CCCCNc3cccc4c3C(=O)N(C3CCC(=O)NC3=O)C4=O)CC2)n1 (configuration not stated)
D = Cc1nc(Nc2ncc(C(=O)Nc3c(C)cccc3Cl)s2)cc(N2CCN(C(=O)CCOCCOCCOCCNc3cccc4c3C(=O)N(C3CCC(=O)NC3=O)C4=O)CC2)n1 (configuration not stated)
q: Hey, quick one: sort these by DC50, low to high? Please respond by ranking the labels in the order requested.
a: C, B, D, A
(C: 2.7 nM, B: 7.8 nM, D: 18.4 nM, A: 125 nM)

----------
assay: Cmax in Wistar rat at 2 mg/kg, iv by LC-MS/MS analysis; type: ADME, organism-based; parameters: route intravenous, dose 2 mg/kg; conditions: in vivo
QUANTITY_NAME: Cmax (ng/mL)

[[record]]
molecule = "Cc1nc(Nc2ncc(C(=O)Nc3c(C)cccc3Cl)s2)cc(N2CCN(C(=O)CCOCCOCCNc3cccc4c3C(=O)N(C3CCC(=O)NC3=O)C4=O)CC2)n1 (stereo not drawn)"
quantity_name = "Cmax"
data_value = 1140

[[record]]
molecule = "Cc1nc(Nc2ncc(C(=O)Nc3c(C)cccc3Cl)s2)cc(N2CCN(CCCCNc3cccc4c3C(=O)N(C3CCC(=O)NC3=O)C4=O)CC2)n1 (stereo not drawn)"
quantity_name = "Cmax"
data_value = 1450

[[record]]
molecule = "Cc1nc(Nc2ncc(C(=O)Nc3c(C)cccc3Cl)s2)cc(N2CCN(CCSc3cccc4c3C(=O)N(C3CCC(=O)NC3=O)C4=O)CC2)n1 (stereo not drawn)"
quantity_name = "Cmax"
data_value = 1500


----------
test: Apparent volume of distribution during steady state in Wistar rat at 2 mg/kg, iv by LC-MS/MS analysis; assay type: ADME, organism-based; conditions: in vivo, read-out: Vdss
QUANTITY_NAME: Vd (L/kg)

[[record]]
compound = "Cc1nc(Nc2ncc(C(=O)Nc3c(C)cccc3Cl)s2)cc(N2CCN(CCSc3cccc4c3C(=O)N(C3CCC(=O)NC3=O)C4=O)CC2)n1 (stereo not drawn)"
data_value = 5.23


a = Cc1nc(Nc2ncc(C(=O)Nc3c(C)cccc3Cl)s2)cc(N2CCN(C(=O)CCOCCOCCNc3cccc4c3C(=O)N(C3CCC(=O)NC3=O)C4=O)CC2)n1 (stereo not drawn)
b = Cc1nc(Nc2ncc(C(=O)Nc3c(C)cccc3Cl)s2)cc(N2CCN(CCCCNc3cccc4c3C(=O)N(C3CCC(=O)NC3=O)C4=O)CC2)n1 (stereo not drawn)
q: Thinking about recorded Vd values, which is higher, a or b ? In your reply, give the label of the chosen option.
a: b

----------
assay: Tmax in Wistar rat at 2 mg/kg, iv by LC-MS/MS analysis; format: ADME, organism-based; conditions: in vivo
QUANTITY_NAME: Tmax (min)

[[record]]
compound = "Cc1nc(Nc2ncc(C(=O)Nc3c(C)cccc3Cl)s2)cc(N2CCN(CCCCNc3cccc4c3C(=O)N(C3CCC(=O)NC3=O)C4=O)CC2)n1 (stereo not drawn)"
data_value = 4.8

[[record]]
compound = "Cc1nc(Nc2ncc(C(=O)Nc3c(C)cccc3Cl)s2)cc(N2CCN(C(=O)CCOCCOCCNc3cccc4c3C(=O)N(C3CCC(=O)NC3=O)C4=O)CC2)n1 (stereo not drawn)"
data_value = 4.8

[[record]]
compound = "Cc1nc(Nc2ncc(C(=O)Nc3c(C)cccc3Cl)s2)cc(N2CCN(CCSc3cccc4c3C(=O)N(C3CCC(=O)NC3=O)C4=O)CC2)n1 (stereo not drawn)"
data_value = 4.8


Source of measurements: ChEMBL document CHEMBL4831495
